Sodium-dependent dopamine transporter (Homo sapiens, UniProt Q01959) measurements of AC50, listed per entry. Further: assay procedure not described here.
Sequence (Q01959 whole entry): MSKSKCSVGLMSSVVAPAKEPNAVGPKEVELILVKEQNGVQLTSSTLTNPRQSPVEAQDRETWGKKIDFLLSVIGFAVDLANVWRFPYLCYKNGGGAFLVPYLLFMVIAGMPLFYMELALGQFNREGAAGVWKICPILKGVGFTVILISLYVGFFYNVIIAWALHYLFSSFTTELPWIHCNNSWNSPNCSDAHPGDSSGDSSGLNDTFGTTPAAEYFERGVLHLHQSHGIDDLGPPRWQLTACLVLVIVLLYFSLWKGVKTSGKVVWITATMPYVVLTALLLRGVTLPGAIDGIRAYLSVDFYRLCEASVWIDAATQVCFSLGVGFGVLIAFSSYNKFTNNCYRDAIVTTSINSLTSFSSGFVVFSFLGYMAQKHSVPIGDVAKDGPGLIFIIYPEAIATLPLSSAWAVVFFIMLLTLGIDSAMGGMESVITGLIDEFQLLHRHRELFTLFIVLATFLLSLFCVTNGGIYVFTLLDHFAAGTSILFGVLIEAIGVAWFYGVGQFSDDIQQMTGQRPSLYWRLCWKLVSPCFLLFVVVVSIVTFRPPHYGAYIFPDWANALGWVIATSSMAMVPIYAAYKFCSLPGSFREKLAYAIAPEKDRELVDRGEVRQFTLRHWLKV

Qu. For the molecule shown here, CCCCC(CC)CN1CN(CC(CC)CCCC)CC(C)(N)C1 (configuration not stated) , give the reported AC50.
Ans. 4.6 µM

Qu. Looking for the measured AC50 of CC(OCCN1CCCCCC1)(c1ccccc1)c1ccc(Cl)cc1 (configuration not stated) , can you help?
Ans. 2.98 µM

Qu. Given "COc1ccc2c(C(=S)N(C)CC(=O)O)cccc2c1C(F)(F)F" , state its recorded AC50.
Ans. > 30 µM

Qu. Which AC50 value belongs to CC1(C)O[C@@H]2C[C@H]3[C@@H]4C[C@H](F)C5=CC(=O)C=C[C@]5(C)[C@@]4(F)[C@@H](O)C[C@]3(C)[C@]2(C(=O)CO)O1 [FLUOCINOLONE ACETONIDE] ?
Ans. > 30 µM

Qu. Need AC50, item Cc1ccccc1C(=O)Nc1ccc(C(=O)N2CCCC(O)c3cc(Cl)ccc32)c(C)c1 (configuration not stated)
Ans. > 30 µM

Qu. May I ask what AC50 has been recorded for "CC(C)[C@@H]1CC[C@@H](C)C[C@H]1O" ?
Ans. > 30 µM

Qu. Query: AC50; subject: C[C@H]1O[C@@H](O[C@H]2CC[C@@]3(C)[C@H](CC[C@@H]4[C@@H]3C[C@@H](O)[C@]3(C)[C@@H](C5=CC(=O)OC5)CC[C@]43O)C2)C[C@H](O)[C@@H]1O[C@H]1C[C@H](O)[C@H](O[C@H]2C[C@H](O)[C@H](O[C@@H]3O[C@H](CO)[C@@H](O)[C@H](O)[C@H]3O)[C@@H](C)O2)[C@@H](C)O1 [DESLANOSIDE]
Ans. > 30 µM

Qu. State the recorded AC50 for this entry: "C[C@@H]1C[C@H]2[C@@H]3C[C@H](F)C4=CC(=O)C=C[C@]4(C)[C@H]3[C@@H](O)C[C@]2(C)[C@@]1(O)C(=O)CO"
Ans. > 30 µM

Qu. GET /values?readout=AC50&item= C[N+]1(C)CCCC(OC(=O)C(O)(c2ccccc2)c2ccccc2)C1 (configuration not stated) [MEPENZOLATE]
Ans. > 30 µM

Qu. Looking for the measured AC50 of "O=C(O)Cc1ccccc1Nc1c(Cl)cccc1Cl" , can you help?
Ans. > 3 µM

Qu. Fill in: AC50 of "C[C@]12C=CC(=O)C=C1CC[C@H]1[C@@H]3C[C@@H](O)[C@](O)(C(=O)CO)[C@@]3(C)C[C@H](O)[C@@]12F" is ___
Ans. > 30 µM

Qu. Using the record for "CCCn1cnc2c1c(=O)n(CCCCC(C)=O)c(=O)n2C" , report its AC50.
Ans. > 30 µM

###

- measured.target: Thromboxane A2 receptor (Homo sapiens); further: assay procedure not described here
- Sequence (P21731 whole entry): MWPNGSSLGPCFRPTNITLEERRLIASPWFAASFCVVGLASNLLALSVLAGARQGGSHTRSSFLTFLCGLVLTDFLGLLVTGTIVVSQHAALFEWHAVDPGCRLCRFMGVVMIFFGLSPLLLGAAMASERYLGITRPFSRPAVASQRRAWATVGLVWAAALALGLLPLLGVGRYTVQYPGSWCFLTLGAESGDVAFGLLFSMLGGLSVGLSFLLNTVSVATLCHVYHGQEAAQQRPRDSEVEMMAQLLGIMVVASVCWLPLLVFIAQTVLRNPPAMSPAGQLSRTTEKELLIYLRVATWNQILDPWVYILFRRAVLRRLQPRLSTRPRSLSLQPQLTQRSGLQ
- Assay type: functional, cell-based
quantity: AC50 (µM)
Give a bare numeral; the unit µM is implied.

Qu. Which AC50 is listed for "CC(=O)[C@]1(N)Cc2c(O)c3c(c(O)c2[C@@H](O[C@H]2C[C@H](O)[C@H](O)CO2)C1)C(=O)c1ccccc1C3=O" ?
Ans. 11.8

Qu. If you can, please state the reported AC50 value of CN1CCCN(C(c2ccccc2)c2ccc(Cl)cc2)CC1 (centres undefined) .
Ans. 11.8

###

I'd appreciate it if you could supply AC50 values for the items below.
- measured.target: Histamine H2 receptor (Homo sapiens); further: assay procedure not described here
- Sequence (P25021 whole entry): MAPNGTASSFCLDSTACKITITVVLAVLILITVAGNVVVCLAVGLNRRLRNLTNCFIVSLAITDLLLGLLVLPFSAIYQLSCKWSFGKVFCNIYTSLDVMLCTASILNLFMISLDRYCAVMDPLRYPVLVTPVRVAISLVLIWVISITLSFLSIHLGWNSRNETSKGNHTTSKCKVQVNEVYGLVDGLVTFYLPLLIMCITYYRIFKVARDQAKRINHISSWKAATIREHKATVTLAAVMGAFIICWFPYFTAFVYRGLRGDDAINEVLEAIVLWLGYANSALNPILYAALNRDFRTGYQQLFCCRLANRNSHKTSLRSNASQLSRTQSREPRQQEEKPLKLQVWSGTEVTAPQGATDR
- Assay type: functional, cell-based

Qu. What does the record list as AC50 for CCC(NC(C)C)C(O)c1ccc(O)c2[nH]c(=O)ccc12 (configuration not stated) [PROCATEROL] ?
Ans. > 30 µM

Qu. For the compound shown here, "C[N+]1(C)CCC(=C(c2ccccc2)c2ccccc2)CC1" , give the reported AC50.
Ans. > 10 µM

Qu. I have this compound here, CC(c1cc2ccccc2s1)N(O)C(N)=O (configuration not stated) [ZILEUTON] , and I need its recorded AC50.
Ans. > 10 µM

Qu. I'd like to know its AC50. The compound in question is CC(C)C[C@H](NC(=O)[C@@H](O)[C@H](N)Cc1ccccc1)C(=O)O [UBENIMEX]
Ans. > 30 µM

Qu. Requested field: AC50. Item: c1ccc(C2(N3CCCCC3)CCCCC2)cc1 [PHENCYCLIDINE]
Ans. > 30 µM

Qu. What value of AC50 has been reported for the following compound? CC(C)[C@H](N)C(=O)OCCOCn1cnc2c(=O)[nH]c(N)nc21 [VALACYCLOVIR]
Ans. > 10 µM

Qu. Would you kindly share the measured AC50 for C=CCN1CCc2nc(N)sc2CC1 [TALIPEXOLE] ?
Ans. > 30 µM

Qu. Look up AC50 for this compound: Cc1cc(C)nc(NS(=O)(=O)c2ccc(N)cc2)n1 [SULFAMETHAZINE]
Ans. > 30 µM

Qu. Please give the measured AC50 for this compound: "CCCc1nc2c(C)cc(-c3nc4ccccc4n3C)cc2n1Cc1ccc(-c2ccccc2C(=O)O)cc1"
Ans. > 10 µM

Qu. What does the record list as AC50 for CC=CC1=C(C(=O)O)N2C(=O)[C@@H](NC(=O)[C@H](N)c3ccc(O)cc3)[C@H]2SC1 [CEFPROZIL] ?
Ans. > 30 µM

Qu. Give its AC50 value. Item: OC[C@H]1O[C@@H](Oc2cc(O)cc(/C=C/c3ccc(O)cc3)c2)[C@H](O)[C@@H](O)[C@@H]1O [PICEID]
Ans. > 30 µM

Qu. I am curious: what AC50 value has been reported for CC(C)(C)NCC(O)c1ccccc1Cl (configuration not stated) [TULOBUTEROL] ?
Ans. > 30 µM

Qu. Quick check: AC50 of CCN1CCCC1CNC(=O)c1cc(S(=O)(=O)CC)ccc1OC (configuration not stated) [SULTOPRIDE] ?
Ans. > 30 µM

Qu. Tell me the measured AC50 of Cc1ccc(C)c(OCCCC(C)(C)C(=O)O)c1 [GEMFIBROZIL] , please.
Ans. > 10 µM

Qu. Quick one: AC50 for COc1cc(C)c(/C=C/C(C)=C/C=C/C(C)=C/C(=O)O)c(C)c1C [ACITRETIN] ?
Ans. > 10 µM

Qu. Fill blank: measured AC50 of the compound CC(C(=O)O)c1ccc2c(c1)CC(=O)c1ccccc1S2 (configuration not stated) [ZALTOPROFEN] is ____.
Ans. > 30 µM

Qu. Field request: AC50 | item: Cc1cccc(C)c1NC(=O)CC12CCCN1CCC2 [PILSICAINIDE]
Ans. > 30 µM

Qu. Would you mind telling me what AC50 value was observed for CC(CN1c2ccccc2Sc2ccccc21)N(C)C (configuration not stated) [PROMETHAZINE] ?
Ans. > 10 µM

Qu. # query: AC50 of entry NC(=O)NC(=O)Cc1ccccc1 [PHENACEMIDE]
Ans. > 10 µM

Qu. Reported AC50, compound CCOC(=O)C(C)(C)Oc1ccc(Cl)cc1 [CLOFIBRATE] : ____
Ans. > 10 µM

Qu. Given C/C=C(/C(=C/C)c1ccc(O)cc1)c1ccc(O)cc1 [DIENESTROL] , state its recorded AC50.
Ans. > 10 µM

Qu. # AC50 lookup, item Cn1cc(C(=O)[C@@H]2CCc3nc[nH]c3C2)c2ccccc21 [RAMOSETRON]
Ans. > 30 µM

Qu. Can you look up the measured AC50 of NNC(=O)c1ccncc1 [ISONIAZID] for me?
Ans. > 10 µM

Qu. What value of AC50 has been reported for the following compound? CCc1cc2c(s1)-n1c(C)nnc1CN=C2c1ccccc1Cl [ETIZOLAM]
Ans. > 30 µM

Qu. Data request, read-out AC50, for C=C1c2cccc(O)c2C(=O)C2=C(O)[C@]3(O)C(=O)C(C(N)=O)=C(O)[C@@H](N(C)C)[C@@H]3[C@@H](O)[C@H]12 [METHACYCLINE]
Ans. > 10 µM

Qu. # input compound: CN[C@@H](C)[C@@H](O)c1ccccc1 [PSEUDOEPHEDRINE] ; wanted: its AC50
Ans. > 10 µM

Qu. Can you share its AC50? I mean this compound: CCOC(=O)C1=C(C)NC(C)=C(C(=O)OCC)C1c1ccccc1/C=C/C(=O)OC(C)(C)C [LACIDIPINE]
Ans. > 30 µM

Qu. Entry CCC(=O)O[C@]1(C(=O)CCl)[C@@H](C)C[C@H]2[C@@H]3CCC4=CC(=O)C=C[C@]4(C)[C@@]3(F)[C@@H](O)C[C@@]21C [CLOBETASOL PROPIONATE] has what AC50?
Ans. > 30 µM

Qu. Give its AC50 value. Item: "C[N+](C)(C)CCOP(=O)([O-])OC[C@H](O)CO"
Ans. > 30 µM

Qu. I have this compound here, Cn1c(=O)c2c(ncn2CCOC(=O)C(C)(C)Oc2ccc(Cl)cc2)n(C)c1=O [THEOFIBRATE] , and I need its recorded AC50.
Ans. > 30 µM

Qu. Which measured AC50 value corresponds to CO[C@H]1C[C@H](O[C@H]2CC[C@@]3(C)[C@H](CC[C@@H]4[C@@H]3CC[C@]3(C)[C@@H](C5=CC(=O)OC5)[C@@H](OC(C)=O)C[C@]43O)C2)O[C@@H](C)[C@@H]1O [OLEANDRIN] ?
Ans. > 30 µM

Qu. For O=C1Cc2cc(CCN3CCN(c4nsc5ccccc45)CC3)c(Cl)cc2N1 [ZIPRASIDONE] , what is its reported AC50?
Ans. > 10 µM

Qu. Could you share which AC50 value was measured for COc1ccc(CN2CCN(C(c3ccc(F)cc3)c3ccc(F)cc3)CC2)c(OC)c1OC [LOMERIZINE] ?
Ans. > 30 µM

Qu. # query: AC50 of entry C[N+]12CCC(CC1)C(OC(=O)C(O)(c1ccccc1)c1ccccc1)C2 (configuration not stated)
Ans. > 30 µM

Qu. Field request: AC50 | item: Cc1ccnc2c1NC(=O)c1cccnc1N2C1CC1 [NEVIRAPINE]
Ans. > 10 µM

Qu. What does the record list as AC50 for CCC(=O)O[C@](Cc1ccccc1)(c1ccccc1)[C@H](C)CN(C)C [PROPOXYPHENE] ?
Ans. > 10 µM

Qu. Could you share which AC50 value was measured for CCC1(CCC(C)C)C(=O)NC(=O)NC1=O [AMOBARBITAL] ?
Ans. > 10 µM

Numbers sourced from ChEMBL document CHEMBL5291721.
